assay: High Throughput Screening for Foot and Mouth Disease Virus Antivirals; conditions: FMDV antiviral cell-based qHTS; series mostly up to 57.9 µM; note: read-out not given here; nearly all actives have a fitted effect of over 45% in size
Screen size: about 410,000 compounds; about 5,100 (1.2%) were called active. Roughly 8% stayed inconclusive and do not appear here. Calls come from the whole dose curve; tested in HEK293T cells. Many of the other results were omitted from the sample, so actives are more common in it than they were.
Outcome codes: 1 (active), -1 (inactive)

molecule	group
COc1ccccc1-c1cc(C(F)(F)F)nc(S(=O)(=O)CCCC(=O)Nc2cc(C)ccc2O)n1	-1
COc1cccc2oc(CCc3ccccc3)cc(=O)c12	-1
COc1ccccc1CCn1c(=O)c(-c2cn(C)c3ccccc23)nc2cncnc21	-1
Cc1ccc(NC(=O)CSc2nc3c([nH]c4ccccc43)c(=O)n2-c2ccccc2)c(C)c1	-1
c1cnc(NC2C3CC4CC(C3)CC2C4)nc1 (centres undefined)	-1
COCCCNC(=O)c1ccc(NC(=O)c2nsc3ccccc23)cc1	-1
CCCCCCCCCCOC(=O)Cn1c(COc2cccc(OC)c2)[n+](C)c2ccccc21	1
C#CCOc1ccccc1/C=C1/C(=O)ON=C1C	1
C=CCN1CCC2(C)c3cc(O)ccc3CC1[C@@H]2C (some centres undefined)	-1
Cc1no[n+]([O-])c1COc1ccccc1/C=C1\NC(=S)NC1=O	-1
COc1ccc(CNc2ncncc2-c2ccccc2C)c(OC)c1	-1
c1ccc2c(NC3C4CC5CC(C4)CC3C5)nc(N3CCOCC3)nc2c1 (centres undefined)	1
CCCCCc1c(Cc2ccccc2)ncn1CCc1ccccc1OC	1
COC1C[C@@H](O[C@@H]2C(C)C(=O)OC(C)C(C)C(O)C(C)C(=O)[C@@]3(CO3)CC(C)C(OC3OC(C)CC(N(C)C)C3O)C2C)OC(C)[C@@H]1O (some centres undefined)	-1
COc1ccc(NC(=O)C2=CC(c3ccc(OC)c(OC)c3)=NS(=O)(=O)N2C)cc1	1
Cc1nc2cnc(Nc3ccccc3)nc2n(C[C@H]2CCCO2)c1=O	-1
CCCCNS(=O)(=O)CCNCc1ccccc1OC	-1
CN1CCCC1CCO[C@@](C)(c1ccccc1)c1ccc(Cl)cc1 (some centres undefined)	-1
CN(C)c1ccc(-c2nc(NCCN3CCOCC3)c3ccccc3n2)cc1	-1
Cn1cccc1C(=O)N1CCC2(CC1)CN(c1cccc(-c3ccccc3)c1)C2	-1
Cc1cnc(CNc2cc(-c3c(C)noc3C)ncn2)cn1	-1
CCOC(=O)C1CCCN(C(=O)c2ccc(-n3ccc4ccccc43)s2)C1 (centres undefined)	-1
CCCCc1c(-c2ccc(Br)cc2)ncn1CCc1ccccc1OC	1
O=C(CCc1nc(CN2CCN(S(=O)(=O)c3ccc(Br)cc3)CC2)no1)N1CCCCC1	-1

====

test: High Throughput Screening for Foot and Mouth Disease Virus Antivirals; conditions: FMDV antiviral cell-based qHTS; series mostly up to 57.9 µM; note: read-out not given here; nearly all actives have a fitted effect of over 45% in size
In all, about 410,000 compounds went through this assay and about 5,100 (1.2%) were called active. About 8% were inconclusive and are not listed. Calls come from the whole dose curve; tested in HEK293T cells. The sample holds actives, similar compounds and a random draw of the others, so the mix is not that of the screen.
Outcome codes: active, inactive

molecule	group
Cc1nc2cnc(N3CCN(C)CC3)nc2n(C[C@H]2CCCO2)c1=O	inactive
CCOC(=O)c1c(NC(=O)c2cc(CC)on2)sc(C(C)=O)c1C	inactive
CCOC(=O)CCP(=O)(O)C(O)(c1ccccc1)c1ccccc1	inactive
c1ccc(Nc2nc(N3CCOCC3)c3ccccc3n2)cc1	active
O=C(COc1nc2ccccc2nc1N1CCOCC1)NCC(F)(F)F	inactive
Cc1ccc2oc(=O)c3cnn(CC(=O)N4CCN(c5cccc(Cl)c5)CC4)c3c2c1	inactive
COc1ccc(CCNc2ncnc3c2cnn3-c2ccc(C)cc2)cc1	inactive
CCNCCCNCCCNCCCNCC	inactive
COc1ccc(CNc2ncncc2-c2ccccc2OC)c(OC)c1	inactive
COc1ccccc1/C=C/C(=O)OCC(=O)NC1CCCCCC1	inactive
CCOC(=O)C(=Cc1ccccc1)C(=O)c1ccccc1	active
CCOC(=O)/C(=C\c1ccc([N+](=O)[O-])cc1)C(=O)c1cc(C(C)=O)c(Nc2ccccc2)s1	active
Cc1c(NC(=O)C(C)(C)C)cccc1-c1nc2ccccc2s1	inactive
O=C(NC(=S)NC1CCSC1=O)c1ccccc1F (stereo not drawn)	inactive
CCOC(=O)C(=Cc1ccccc1OC)C(=O)OCC	active
CCCS(=O)(=O)NCc1c(C)ncc2c1CCN(C(=O)c1ccc(F)c(F)c1)C2	inactive
COc1cc(-c2cccnc2)cc2c1OCCN(C(=O)Cc1csc(C)n1)C2	inactive
CC(C)CCn1c(CN(C)Cc2ccccc2)nc2c1c(=O)n(C)c(=O)n2C	active
Cn1c(=O)c2c(nc(NCCc3ccccc3)n2Cc2ccccc2Br)n(C)c1=O	inactive
Cc1ccc(-c2nnc(SCc3ccccc3C)o2)cc1	inactive
COc1ccc(OC)c(-c2csc(-c3c(N)c(C(=O)c4ccccc4)n4ccccc34)n2)c1	inactive
Cn1c(=O)c2c(nc(NCCc3ccccc3)n2Cc2ccccc2)n(C)c1=O	active
COCCn1c(=O)c(-c2cccc(F)c2)nc2cncnc21	inactive
COc1cccc(-c2cc(NCCc3c[nH]c4ccc(OC)cc34)ncn2)c1	inactive
CC(C)c1ccc(NC(=O)c2cc(S(=O)(=O)N3CCc4ccccc4C3)ccc2F)cc1	inactive
Cc1ccc(Nc2nc(CSc3nnc(-c4ccncc4)n3-c3ccccc3C)cs2)cc1	active
O=C(c1ccc2c(c1)N(Cc1ccc(Cl)cc1)C(=O)c1ccccc1S2(=O)=O)N1CCCCC1	inactive
CC(C)=CC1C(C(=O)O)C1(C)C (stereo not drawn)	inactive
COc1ccccc1Nc1cc(C(=O)NCCCN(C)C2CCCCC2)c2ccccc2n1	inactive
Cc1ccc(C)c(OCC(=O)Nc2sc3c(c2C#N)CCCC3)c1C	inactive
CCOC(=O)c1c(NC(=O)CCl)sc(C(=O)N(CC)CC)c1C	active
CN(NC(=O)c1ccccc1F)c1nc(C(F)(F)F)nc2ccccc12	inactive
CC(C)CCn1c(=O)c2c(nc3n2CCCN3Cc2ccccc2)n(C)c1=O	inactive
CC(=O)c1ccc(NC(=O)CCc2nc(-c3ccc(C)cc3)no2)cc1	inactive
Cn1c(=O)c2c(nc(SCC(=O)Nc3ccc(F)cc3)n2Cc2ccccc2)n(C)c1=O	inactive
CCN1C[C@]2(COC)C(O)C[C@H](OC)[C@@]34C5C[C@]6(O)C(OC)C(O)[C@](OC(C)=O)(C5C6OC(=O)c5ccccc5)C(C(OC)C23)C14 (stereo partly drawn)	inactive
CCOC(=O)c1cc2c(=O)n3ccccc3nc2n(Cc2ccco2)c1=NC(=O)c1ccc(F)cc1	inactive
Cc1nc2ccc(NC(=O)c3cccc(S(=O)(=O)N4CCOCC4)c3)cc2s1	active
O=C1C(c2ccccn2)=[N+]([O-])c2ccccc21	inactive
Cc1cccc(CNC(=O)c2cnn(-c3nccc(-c4ccccc4F)n3)c2C2CC2)n1	inactive
COc1cccc(CNc2nccn(-c3ccc(OC)c(OC)c3)c2=O)c1	inactive
CCOC(=O)C(=O)C1C(=O)Nc2ccccc21 (stereo not drawn)	inactive
CCOC(=O)c1c(C)[nH]c(C)c1C(=O)COC(=O)/C=C/c1cccc([N+](=O)[O-])c1	inactive
